# Tested on: SK-HEP1;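 note: cell viability readout used to quantify reduction in proliferation of human SK-HEP-1 cells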
# Experimental Details: cells
# Format: functional, cell-based, Homo sapiens, SK-HEP-1
# Run Conditions: Homo sapiens, SK-HEP1
# Description: SANGER: Inhibition of human SK-HEP-1 cell growth in a cell viability assay.
Structures can show the parent of a compound that is named as a salt.
Assay Metric: IC50

# annotated cases, reported IC50 shown
**Q:** # IC50 lookup, item Cn1cnc2c(F)c(Nc3ccc(Br)cc3Cl)c(C(=O)NOCCO)cc21
**A:** 2.29 µM

**Q:** # IC50 lookup, item C=C(c1ccc(C(=O)O)cc1)c1cc2c(cc1C)C(C)(C)CCC2(C)C
**A:** > 8 µM

**Q:** # IC50 lookup, item Nc1cccc2c1CN(C1CCC(=O)NC1=O)C2=O (stereo unspecified) [LENALIDOMIDE]
**A:** > 5 µM

**Q:** # IC50 lookup, item CN(C)C(=N)NC(=N)N
**A:** > 20000 µM

**Q:** # IC50 lookup, item COC1=CC(c2cc3ccccc3[nH]2)=N/C1=C\c1[nH]c(C)cc1C [OBATOCLAX MESYLATE]
**A:** 0.196 µM

Attention now shifts to the item below.
**Q:** # IC50 lookup, item N#Cc1c(O)c2c(-c3ccc(-c4ccccc4O)cc3)csc2[nH]c1=O
**A:** > 1.02 µM
